targetUnderTest: GGTase I (substrate RhoA) (Homo sapiens, UniProt P49354+P53609)
assayText: GGTase I filter-binding assay with RhoA as substrate
Type: biochemical
testContext: 50 μM compound; DMSO = 100%; smaller numbers indicate better inhibition; second number of pair; read-out: % activity of GGTase I for protein RhoA in the presence of the compound
Description: The pilot library was screened for inhibitors of protein geranylgeranyltransferase type I. Protein prenyltransferase assays were carried out by using filter binding. Two different substrates, RhoA and K-Ras4B, were used for the assay. […] The % activity of GGTase I was determined as follows: a working solution that contained each compound in DMSO at the concentration of 1 mM was prepared. […]
measurementLabel: activity at 50 µM (%)

A: CCCCCC[C@@H]1[C@@H](SC2CCCC2)[C@@H](C(=O)O)[C@H](c2ccc(C#N)cc2)N1S(=O)(=O)c1ccc(C)cc1
B: C=CCS[C@H]1[C@@H](C(=O)O)[C@H](c2ccc(Cl)cc2)N(S(=O)(=O)c2ccccc2C)[C@@H]1CC1CCCC1
In: Hi team, can someone confirm which has the larger activity at 50 µM: A or B ? Thanks. Choose, then provide that item's label.
Out: A
